Biological target: NS3 genotype 3a protease (UniProt Q81258)
Construct: Purified NS3 protease domain (amino acids 1-181) of the genotype 1b and 3a virus were generated as above; fused on or other part: N-terminal hexahistidine tag with an rTEV protease cleavage site (vector p28-N6H-Tev-NS3(181)3)
Test: Ki determination, NS3 protease genotype 3a (fluorogenic depsipeptide substrate)
Conditions: NS3 protease domain genotype 3a, NS4A peptide
The reader will find reported pKi values listed item by item below.
Convention used: pKi is expressed as -log10 of the molar concentration.

[[record]]
molecule = "CC(C)(C)[C@@H]1NC(=O)O[C@@H]2C[C@@H]3C[C@@H]3[C@H]2CCCCC(F)(F)c2nc3ccccc3nc2O[C@@H]2C[C@@H](C(=O)N[C@]3(C(=O)NS(=O)(=O)C4CC4)C[C@H]3C(F)F)N(C2)C1=O [Example 18]"
reported_property = "pKi"
result_value = 10.70


Could you now look at the following molecule, please?
Sure, the documented pKi for COc1ccc2nc3c(nc2c1)O[C@@H]1C[C@@H](C(=O)N[C@]2(C(=O)NS(=O)(=O)C4CC4)C[C@H]2C(F)F)N(C1)C(=O)[C@H](C(C)(C)C)NC(=O)O[C@@H]1[C@H]2CC[C@H](C2)[C@H]1CCCCC3 [Example 4] is 9.68

* * *

System: genotype 1a stable HCV replicon (H77) in Huh-7-derived cells
Experiment: Stable subgenomic HCV replicon, genotype 1a, Renilla luciferase
Format: cell-based
Details: Hepatitis C virus, stable replicon genotype 1a, 72 h, read-out: EC50 1A RLUC
The reader will find reported EC50 values listed item by item below.
Enter your answer as a number in nM; do not include the unit.

Recorded results for 5 compounds are shown here.
[[record]]
compound = "COc1ccc2nc3c(nc2c1)O[C@@H]1C[C@@H](C(=O)N[C@]2(C(=O)NS(=O)(=O)C4CC4)C[C@H]2CC(F)F)N(C1)C(=O)[C@H](C(C)(C)C)NC(=O)O[C@@H]1C[C@@H]2C[C@@H]2[C@H]1CCCCC3 [Example 3]"
target_or_system = "genotype 1a stable HCV replicon (H77) in Huh-7-derived cells"
result_value = 3.8

[[record]]
compound = "COc1ccc2nc3c(nc2c1)O[C@@H]1C[C@@H](C(=O)N[C@]2(C(=O)NS(=O)(=O)C4(C)CC4)C[C@H]2C(F)F)N(C1)C(=O)[C@H](C(C)(C)C)NC(=O)O[C@@H]1[C@H]2CC[C@H](C2)[C@H]1CCCCC3 [Example 5]"
target_or_system = "genotype 1a stable HCV replicon (H77) in Huh-7-derived cells"
result_value = 5

[[record]]
compound = "COc1ccc2nc3c(nc2c1)O[C@@H]1C[C@@H](C(=O)N[C@]2(C(=O)NS(=O)(=O)C4(C)CC4)C[C@H]2CC(F)F)N(C1)C(=O)[C@H](C(C)(C)C)NC(=O)O[C@@H]1C[C@@H]2C[C@@H]2[C@H]1CCCCC3(F)F [Example 20]"
target_or_system = "genotype 1a stable HCV replicon (H77) in Huh-7-derived cells"
result_value = 6

[[record]]
compound = "COc1ccc2nc3c(nc2c1)O[C@@H]1C[C@@H](C(=O)N[C@]2(C(=O)NS(=O)(=O)C4CC4)C[C@H]2C(F)F)N(C1)C(=O)[C@H](C(C)(C)C)NC(=O)O[C@@H]1[C@H]2CC[C@H](C2)[C@H]1CCCCC3 [Example 4]"
target_or_system = "genotype 1a stable HCV replicon (H77) in Huh-7-derived cells"
result_value = 4.3

[[record]]
compound = "CC(C)(C)[C@@H]1NC(=O)O[C@@H]2C[C@@H]3C[C@@H]3[C@H]2CCCCCc2nc3ccc(F)cc3nc2O[C@@H]2C[C@@H](C(=O)N[C@]3(C(=O)NS(=O)(=O)C4CC4)C[C@H]3C(F)F)N(C2)C1=O [Example 12]"
target_or_system = "genotype 1a stable HCV replicon (H77) in Huh-7-derived cells"
result_value = 1.7


Sure, the documented EC50 for COc1ccc2nc3c(nc2c1)O[C@@H]1C[C@@H](C(=O)N[C@]2(C(=O)NS(=O)(=O)C4CC4)C[C@H]2C(F)F)N(C1)C(=O)[C@H](C(C)(C)C)NC(=O)O[C@@H]1C[C@@H]2C[C@@H]2[C@H]1CCCCC3(F)F (racemic) [Example 9] is 1.7

Sure, the documented EC50 for CC(C)(C)[C@@H]1NC(=O)O[C@@H]2C[C@@H]3C[C@@H]3[C@H]2CCCCC(F)(F)c2nc3ccccc3nc2O[C@@H]2C[C@@H](C(=O)N[C@]3(C(=O)NS(=O)(=O)C4CC4)C[C@H]3C(F)F)N(C2)C1=O [Example 18] is 4.8

Sure, the documented EC50 for COc1ccc2nc3c(nc2c1)O[C@@H]1C[C@@H](C(=O)N[C@]2(C(=O)NS(=O)(=O)C4CC4)C[C@H]2C(F)F)N(C1)C(=O)[C@H](C(C)(C)C)NC(=O)O[C@H]1[C@@H]2CC[C@@H](C2)[C@@H]1CCCCC3 [Example 6] is 723

Sure, the documented EC50 for CC(C)(C)[C@@H]1NC(=O)O[C@@H]2C[C@@H]3C[C@@H]3[C@H]2CCCCC(F)(F)c2nc3cc(F)c(F)cc3nc2O[C@@H]2C[C@@H](C(=O)N[C@]3(C(=O)NS(=O)(=O)C4CC4)C[C@H]3C(F)F)N(C2)C1=O (racemic) [Example 15] is 3.5

Sure, the documented EC50 for COc1ccc2nc3c(nc2c1)O[C@@H]1C[C@@H](C(=O)N[C@]2(C(=O)NS(=O)(=O)C4(C)CC4)C[C@H]2C(F)F)N(C1)C(=O)[C@H](C(C)(C)C)NC(=O)O[C@H]1[C@H](CCCCC3)C[C@H]2C[C@H]21 [Example 8] is 76

Sure, the documented EC50 for COc1ccc2nc3c(nc2c1)O[C@@H]1C[C@@H](C(=O)N[C@]2(C(=O)NS(=O)(=O)C4CC4)C[C@H]2C(F)F)N(C1)C(=O)[C@H](C(C)(C)C)NC(=O)O[C@@H]1C[C@@H]2C[C@@H]2[C@H]1CCCCC3 [Example 1] is 1.1

Sure, the documented EC50 for COc1ccc2nc3c(nc2c1)O[C@@H]1C[C@@H](C(=O)N[C@]2(C(=O)NS(=O)(=O)C4CC4)C[C@H]2C(F)F)N(C1)C(=O)[C@H](C(C)(C)C)NC(=O)O[C@H]1[C@H](CCCCC3)C[C@H]2C[C@H]21 [Example 7] is 95

Sure, the documented EC50 for CC(C)(C)[C@@H]1NC(=O)O[C@@H]2C[C@@H]3C[C@@H]3[C@H]2CC/C=C/C(F)(F)c2nc3ccc(C#N)cc3nc2O[C@@H]2C[C@@H](C(=O)N[C@]3(C(=O)NS(=O)(=O)C4(C)CC4)C[C@H]3C(F)F)N(C2)C1=O [Example 13] is 3.4
